Could you please report measured TGI for the items listed next?
- System: T-47D breast
- assay-text: NCI tumour cell line growth inhibition, 48 h

Here are 3 compounds together with their reported answers.
Assign TGI to the following record: CC(=O)C(C(c1ccccc1)N1CCOCC1)N1CCOCC1 (centres undefined)
> 100 µM

Assign TGI to the following record: O=C(O)c1c2c(cc3c1CC(Cc1ccccc1)C3=O)CCC2 (centres undefined)
> 100 µM

Assign TGI to the following record: CCOC(=O)Nc1cc2c(c(N)n1)N=C(c1ccc(OC)cc1)CN2
> 100 µM

Could you tell me TGI for each of these compounds? They are listed below.
1. CC1(C)C2CCC1(C)C(N/C(Sc1ccccc1)=C(/C(Cl)=C(Cl)Cl)[N+](=O)[O-])C2 (centres undefined)
2. COc1ccc2nc(N/N=C/c3sccc3C)cc(C)c2c1
3. CC(C)(C)C1CCC(=O)/C(=C/CC2CC(=O)N(c3ccccc3)C(=O)C2)C1 (centres undefined)
4. O=C1CS(=O)(=O)C(c2cccc(Oc3ccccc3)c2)N1c1ccc(Cl)cc1 (centres undefined)
5. N/N=C\c1c2ccccc2c(=O)n2c1oc1ccccc12
6. CC(=O)OCC1OC(N2C(C)=C(C(C)=O)C(c3ccc(Cl)cc3)C(C#N)=C2S)C(OC(C)=O)C(OC(C)=O)C1OC(C)=O (centres undefined)

["31.2 µM", "> 100 µM", "48.6 µM", "> 100 µM", "39.9 µM", "> 100 µM"]

====

- System: HOP-62 NSCLC
- assay-text: NCI tumour cell line growth inhibition, 48 h
Could you please report measured TGI for the items listed next?
Numbers only, in µM.

Assign TGI to the following record: CC(C)CNc1nc(-c2ccccc2Cl)nc2ccccc12
29.2

Assign TGI to the following record: O=c1[nH]c2ccccc2cc1-c1nc2ccc(Cl)cc2[nH]1
59.3

Assign TGI to the following record: CC(C)CCNC(=O)c1ccc(CNC(=O)/C=C/c2cccc(Oc3ccccc3)c2)cc1
53.3

The record that follows has no TGI shown yet.
Assign TGI to the following record: C=CC[C@]1(/C=N/O)CN(S(=O)(=O)CC[Si](C)(C)C)C[C@H]2CC=CC[C@H]21
39

====

Could you please report measured TGI for the items listed next?
- System: SK-MEL-2 melanoma
- assay-text: NCI tumour cell line growth inhibition, 48 h
Answers are plain numbers, in µM.

Here are 2 molecules together with their reported answers.
# lookup: SK-MEL-2 melanoma TGI, key = Cc1ccc(C2=C(c3ccc(C)cc3)C3(c4ccc(C)cc4)C4C(=O)OC(=O)C4C2(c2ccc(C)cc2)S3=O)cc1 (stereo not given)
78.8

# lookup: SK-MEL-2 melanoma TGI, key = COc1ccc2c(c1)/C(=C\c1c(Cl)[nH]c3cc(C)c(OC)cc13)C(=O)N2
18.5

The record that follows has no TGI shown yet.
# lookup: SK-MEL-2 melanoma TGI, key = COc1ccc(Cn2c(=O)c(OC)c(C)c3cc4ccccc4cc32)cc1
52.5

====

- System: NCI-H522 lung
- assay-text: NCI tumour cell line growth inhibition, 48 h; in the data active = GI50 below about 0.43 µM; inactive = the rest
Please state which outcome applies, choosing from active, inactive

Please state the recorded outcome for this molecule: CCN1C(=O)/C(=C/c2c(Cl)[nH]c3cc(C)c(OC)cc23)c2ccccc21
inactive

Please state the recorded outcome for this molecule: Nc1n[nH]c2cccc(C#Cc3cccc(NC(=O)c4cccc(C(F)(F)F)c4)c3)c12
inactive

Please state the recorded outcome for this molecule: O=C1C=CC(=O)C2C1C1(Cl)C(Cl)=C(Cl)C2(Cl)C1(Cl)Cl (stereo not drawn)
inactive

Please state the recorded outcome for this molecule: CN(c1ccc(NC(=O)Nc2c(Cl)cccc2Cl)cc1)c1ccnc(Nc2cccc(CS(C)(=O)=O)c2)n1
inactive

Please state the recorded outcome for this molecule: CCOc1cccc(/C=N/NC(=O)c2cccc(Nc3ccnc(C(F)(F)F)c3)c2)c1O
inactive

Please state the recorded outcome for this molecule: Cn1c(Cl)c(/C=C2/C(=O)Nc3ccccc32)c2ccccc21
inactive

Please state the recorded outcome for this molecule: CCN(CC)CCNC(Cc1ccccc1)c1ccc(OCc2ccccc2)cc1 (stereo not drawn)
inactive

Please state the recorded outcome for this molecule: COc1cccc2c1C(=N)c1c(O)c3c(c(O)c1C2=O)C[C@@](O)(C(C)=O)C[C@@H]3O[C@H]1C[C@H](N)[C@H](O)[C@H](C)O1
active

Please state the recorded outcome for this molecule: CC1(C)N=C(N)N=C(N)N1c1ccc(CCC(=O)Nc2ccc(S(=O)(=O)F)cc2)c(Cl)c1
inactive

Please state the recorded outcome for this molecule: Cc1cn(-c2cc(NC(=O)c3cccc(C#Cc4cccc5[nH]nc(N)c45)c3)cc(C(F)(F)F)c2)cn1
inactive

New cases:
Please state the recorded outcome for this molecule: CCCOC(=O)N[C@H]1CCc2c(Cl)c(OC)c(OC)c(OC)c2-c2ccc(SC)c(=O)cc21
active

Please state the recorded outcome for this molecule: CN(C)C/C=C/C(=O)Nc1ccc(C(=O)N[C@@]2(C)CCC[C@@H](Nc3ncc(Cl)c(-c4c[nH]c5ccccc45)n3)C2)nc1
active

Please state the recorded outcome for this molecule: [N-]=[N+]=NCCCn1c2c(c3ccc([N+](=O)[O-])cc3c1=O)C(=O)c1ccccc1-2
inactive

====

- Test system: HL-60(TB) leukemia
- assay-text: NCI tumour cell line growth inhibition, 48 h
property-measured: TGI

Here are 5 molecules together with their reported answers.
Assign TGI to the following record: Cc1cn(-c2cc(NC(=O)c3cccc(C#Cc4cccc5[nH]nc(N)c45)c3)cc(C(F)(F)F)c2)cn1
32.6 µM

Assign TGI to the following record: CC1C2CC(C(S(=O)(=O)O)C2=O)C1(C)C (stereo unspecified)
> 100 µM

Assign TGI to the following record: C=C(CCOC)CCC1CCCCC(CN(C)C)C1=O (stereo unspecified)
> 100 µM

Assign TGI to the following record: Cc1cc(C)c2c(=O)cc(-c3cccc4ccccc34)[nH]c2n1
0.734 µM

Assign TGI to the following record: Cc1c(N2C(=O)C(Cl)C2/C=C/c2ccccc2)c(=O)n(-c2ccccc2)n1C (stereo unspecified)
45.3 µM

The record that follows has no TGI shown yet.
Assign TGI to the following record: CS(=O)(=O)C(C#N)c1nc2ccccc2nc1Cl (stereo unspecified)
> 100 µM

====

Could you please report measured TGI for the items listed next?
- Test system: SF-295 CNS
- assay-text: NCI tumour cell line growth inhibition, 48 h

Assign TGI to the following record: COc1cccc2c1C(=N)c1c(O)c3c(c(O)c1C2=O)C[C@@](O)(C(C)=O)C[C@@H]3O[C@H]1C[C@H](N)[C@H](O)[C@H](C)O1
1.27 µM

Assign TGI to the following record: CSC(SC)(C(=O)O)c1cc(-c2c(Cl)cccc2Cl)no1
> 100 µM

Assign TGI to the following record: COc1cc2c(cc1OCCCCCCCCCCN1C(=O)c3cccc4cccc(c34)C1=O)N=C[C@@H]1CCCN1C2=O
27.4 µM

Assign TGI to the following record: COC(=O)C(=O)CC(=O)CCn1[nH]c(=O)c(Cl)c(Cl)c1=O
> 100 µM

The record that follows has no TGI shown yet.
Assign TGI to the following record: COc1ccc(-c2c(C(C)=O)c(-c3ccccc3)n(C3OC(CO)C(O)C(O)C3O)c(=S)c2C#N)cc1 (stereo not given)
> 100 µM

====

- System: SK-OV-3 ovarian
- assay-text: NCI tumour cell line growth inhibition, 48 h; in the data active = GI50 below about 0.43 µM; inactive = the rest
Please state which outcome applies, choosing from True for active, False for inactive

Please state the recorded outcome for this compound: O=C(/C=C/c1ccccc1)Nc1ncc(Cc2ccccc2Cl)s1
False

Please state the recorded outcome for this compound: CS(=O)(=O)CCNCc1coc(-c2ccc3ncnc(Nc4ccc(OCc5ccccc5)cc4)c3c2)c1
False

Please state the recorded outcome for this compound: COC(=O)c1ccc2[nH]c(O)c(C(=Nc3ccc(N(C)C(=O)CN4CCN(C)CC4)cc3)c3ccc4c(c3)OCO4)c2c1
True

Please state the recorded outcome for this compound: COc1ccc2c(c1)NC1=C(C(=O)OC1)C2c1cc(OC)c(OC)c(OC)c1 (stereo unspecified)
True

New cases:
Please state the recorded outcome for this compound: COc1cc(Nc2ncccc2C(=O)Nc2nc3ccc(F)cc3s2)cc(OC)c1OC
False

Please state the recorded outcome for this compound: CCC[CH2][Sn]([CH2]CCC)([O]C(=O)CN)[O]C(=O)CN
False

Please state the recorded outcome for this compound: C=C(C)[C@@H]1CC[C@]2(COCCCN)CC[C@]3(C)[C@H](CC[C@@H]4[C@@](C)(CCCNCCCN)[C@H](C(=C)C)CC[C@]43C)[C@@H]12
False

Please state the recorded outcome for this compound: CCOC(=O)Nc1cc2c(c(N)n1)N=C(c1ccc(OC)cc1)CN2
True

Please state the recorded outcome for this compound: Nc1n[nH]c2cccc(C#Cc3cccc(NC(=O)c4cccc(C(F)(F)F)c4)c3)c12
False

Please state the recorded outcome for this compound: COc1ccc2c(c1)OC1=C(C(=O)OC1)C2c1cc(OC)c2c(c1)OCCO2 (stereo unspecified)
True

Please state the recorded outcome for this compound: COc1cccc2c1C(=N)c1c(O)c3c(c(O)c1C2=O)C[C@@](O)(C(C)=O)C[C@@H]3O[C@H]1C[C@H](N)[C@H](O)[C@H](C)O1
True

Please state the recorded outcome for this compound: C=CC(=O)N1CCC(Oc2cc3c(Nc4ccc(Cl)c(Cl)c4F)ncnc3cc2OC)CC1
True
